// reported IRF reporter per item
System: RAW-Dual (murine macrophage reporter line)
Assay: IRF reporter (Lucia luciferase) activity fold change vs agonist alone; higher = enhanced IRF activity
Details: modulator concentration 10 µM; agonist: MPLA […]
Give the figure by itself; no unit, no explanation.

Consider the following illustrative entries.
- TEST SMILES: "CCNc1cc(C)nc(Nc2ccc(NC(=O)c3ccc(OC)c(OC)c3)cc2)n1"
  READOUT KIND: "IRF reporter"
  MEASURED RESULT: 1.29
- TEST SMILES: "Cc1ccc(-c2ncnn2-c2ccc(Cl)cc2)cc1"
  READOUT KIND: "IRF reporter"
  MEASURED RESULT: 1.4

Task: Find the measured IRF reporter: item O=S(=O)(NCCOCc1ccccc1)c1ccccc1 , target or system RAW-Dual (murine macrophage reporter line).
Result: 1.27

Task: Param item: CN1CCN(CCCN2c3ccccc3Sc3ccc(S(=O)(=O)N(C)C)cc32)CC1
Result: 1.55

Task: Input O=C(Cc1ccc(F)cc1F)N1CCC(n2c(=O)[nH]c3ccccc3c2=O)CC1
Result: 1.03

---

Tested on: RAW-Dual (murine macrophage reporter line)
Experiment: NF-kB reporter (SEAP) activity fold change vs agonist alone; higher = enhanced NF-kB activity
Settings: modulator concentration 10 µM; agonist: LPS 0.1 ug/mL
READOUT KIND: NF-kB reporter

Example entries begin here.
- COMPOUND: "Cc1cc(CCC(=O)N(C)C2CN(c3ccc4nnc(C)n4n3)C2)ccc1F"
  TARGET OR TEST SYSTEM: "RAW-Dual (murine macrophage reporter line)"
  READOUT KIND: "NF-kB reporter"
  MEASURED RESULT: 1.1
- COMPOUND: "Nc1ncnc2c1ncn2[C@@H]1O[C@H](COP(=O)(O)O)[C@@H](O)[C@H]1O [Prestw-356]"
  TARGET OR TEST SYSTEM: "RAW-Dual (murine macrophage reporter line)"
  READOUT KIND: "NF-kB reporter"
  MEASURED RESULT: 1.09
- COMPOUND: "COc1cc(C=NNc2ccc(C(=O)O)cc2)cc(Br)c1O"
  TARGET OR TEST SYSTEM: "RAW-Dual (murine macrophage reporter line)"
  READOUT KIND: "NF-kB reporter"
  MEASURED RESULT: 0.97
- COMPOUND: "COc1cc(C=NN2C(=O)c3cccc4cccc(c34)C2=O)cc(Br)c1OC"
  TARGET OR TEST SYSTEM: "RAW-Dual (murine macrophage reporter line)"
  READOUT KIND: "NF-kB reporter"
  MEASURED RESULT: 1.12
- COMPOUND: "CCOC(=O)Nc1nc(C)c(C(C)=O)s1"
  TARGET OR TEST SYSTEM: "RAW-Dual (murine macrophage reporter line)"
  READOUT KIND: "NF-kB reporter"
  MEASURED RESULT: 0.872
- COMPOUND: "COC(=O)C1=CN(CC2CCCO2)C=C(C(=O)OC)C1c1ccccc1OC (stereo unspecified)"
  TARGET OR TEST SYSTEM: "RAW-Dual (murine macrophage reporter line)"
  READOUT KIND: "NF-kB reporter"
  MEASURED RESULT: 0.849
- COMPOUND: "COC(CNS(=O)(=O)c1ccccc1Br)c1ccc(C)s1 (stereo unspecified)"
  TARGET OR TEST SYSTEM: "RAW-Dual (murine macrophage reporter line)"
  READOUT KIND: "NF-kB reporter"
  MEASURED RESULT: 1.05
- COMPOUND: "O=C(Nc1cc(C(F)(F)F)cc(C(F)(F)F)c1)c1cccc(Br)c1"
  TARGET OR TEST SYSTEM: "RAW-Dual (murine macrophage reporter line)"
  READOUT KIND: "NF-kB reporter"
  MEASURED RESULT: 1.02
- COMPOUND: "OC1(c2ccc(Cl)c(C(F)(F)F)c2)CCN(CCCC(c2ccc(F)cc2)c2ccc(F)cc2)CC1"
  TARGET OR TEST SYSTEM: "RAW-Dual (murine macrophage reporter line)"
  READOUT KIND: "NF-kB reporter"
  MEASURED RESULT: 0.173
- COMPOUND: "COc1cccc(-c2cc(C(=O)N3CCC(Oc4cc(C)n(C)c(=O)c4)CC3)n(C)n2)c1"
  TARGET OR TEST SYSTEM: "RAW-Dual (murine macrophage reporter line)"
  READOUT KIND: "NF-kB reporter"
  MEASURED RESULT: 0.994

Task: Recorded NF-kB reporter of O=C1CCCC2=C1C(c1ccc(C(F)(F)F)cc1)Nc1ccc(C(=O)c3ccccc3)cc1N2 (stereo unspecified) , please.
Result: 1.19

Task: What about COc1ccc(CCNC(=O)NCc2nn(C3CCCC3)c3c2CCCC3)cc1 ?
Result: 1.04

Task: Field entry: Cc1nnc(C(C)C)n1C1CC2CCC(C1)N2CC[C@H](NC(=O)C1CCC(F)(F)CC1)c1ccccc1 (stereo partly specified)
Result: 1.05

Values were extracted from the supplement of paper PMC10646978.
